Recorded values, source patent US8846739B2.

- assay.target: h-TGR5 (Homo sapiens, UniProt Q8TDU6)
- Sequence (Q8TDU6 whole entry): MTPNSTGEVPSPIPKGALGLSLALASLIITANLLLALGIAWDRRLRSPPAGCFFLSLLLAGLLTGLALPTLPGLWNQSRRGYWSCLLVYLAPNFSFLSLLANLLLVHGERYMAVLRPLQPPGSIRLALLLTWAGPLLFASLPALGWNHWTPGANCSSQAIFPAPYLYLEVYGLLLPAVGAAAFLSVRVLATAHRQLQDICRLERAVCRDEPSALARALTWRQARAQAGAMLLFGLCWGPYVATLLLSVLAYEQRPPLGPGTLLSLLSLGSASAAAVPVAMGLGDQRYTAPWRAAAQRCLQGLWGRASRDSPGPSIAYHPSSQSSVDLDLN
- protocol.details: TGR5 cAMP Assay using Cisbio cAMP Dynamic 2 htrf assay kit
- run.parameters: hTGR5CRE-luc HEK 293 cells

>  <compound>
COc1cc(C(C)(C)c2cnc(SCc3c(F)cc(S(=O)(=O)N(CCC[N+](C)(C)C)CC(=O)O)cc3F)n2-c2ccc(F)cc2)ccc1Cl

>  <assay.target>
h-TGR5 (Homo sapiens, UniProt Q8TDU6)

>  <EC50>
< 100 nM

$$$$
>  <compound>
COc1cc(-n2c(C(C)(C)c3ccc4onc(N)c4c3)cnc2SCc2c(F)cc(C(=O)NCC[N+](C)(C)C)cc2Cl)ccc1F

>  <assay.target>
h-TGR5 (Homo sapiens, UniProt Q8TDU6)

>  <EC50>
< 100 nM

$$$$
>  <compound>
COc1cc(C(C)(C)c2cnc(SCc3c(F)cc(OCC[N+](C)(C)C)cc3F)n2-c2ccc(F)cc2)ccc1Cl [Compound 20, 2,2,2-trifluoroacetate]

>  <assay.target>
h-TGR5 (Homo sapiens, UniProt Q8TDU6)

>  <EC50>
< 100 nM

$$$$

====

- assay.target: UniProtKB Q8TDU6
- protocol.details: TGR5 cAMP Assay using Cisbio cAMP Dynamic 2 htrf assay kit
- run.parameters: hTGR5CRE-luc HEK 293 cells
Each entry below lists one item and its recorded EC50 value.

>  <compound>
COc1cc(C(C)(C)c2cnc(SCc3c(F)cc(C(=O)NCC[N+](C)(C)C)cc3Cl)n2-c2ccc(F)cc2)ccc1Cl [Example 1]

>  <EC50>
< 100 nM

$$$$
>  <compound>
COc1cc(C(C)(C)c2cnc(SCc3c(F)cc(S(=O)(=O)N4CCC[C@@H]([N+](C)(C)C)C4)cc3Cl)n2-c2ccc(F)cc2)ccc1F [Compound 11p]

>  <EC50>
< 100 nM

$$$$
>  <compound>
COc1cc(C(C)(C)c2cnc(SCc3c(F)cc(S(=O)(=O)N4CCC[C@H](C[N+](C)(C)C)C4)cc3Cl)n2-c2ccc(F)cc2)ccc1F [Compound 11w]

>  <EC50>
< 100 nM

$$$$

====

- assay.target: h-TGR5 (Homo sapiens, UniProt Q8TDU6)
- protocol.details: TGR5 cAMP Assay using Cisbio cAMP Dynamic 2 htrf assay kit
- run.parameters: hTGR5CRE-luc HEK 293 cells
pEC50: −log10 of the molar value.

>  <compound>
COc1cc(C(C)(C)c2cnc(SCc3c(F)cc(CCC[N+](C)(C)C)cc3F)n2-c2ccc(F)cc2)ccc1Cl [Compound 19a, 2,2,2-trifluoroacetate]

>  <assay.target>
h-TGR5 (Homo sapiens, UniProt Q8TDU6)

>  <pEC50>
> 7.00

$$$$
>  <compound>
CC(C)(c1ccc(Cl)c(O)c1)c1cnc(SCc2c(F)cc(S(=O)(=O)NCCC[N+](C)(C)C)cc2F)n1-c1ccc(F)cc1 [Compound 13a, 2,2,2-trifluoroacetate]

>  <assay.target>
h-TGR5 (Homo sapiens, UniProt Q8TDU6)

>  <pEC50>
6.00 to 7.00

$$$$
>  <compound>
COc1cc(C(C)(C)c2cnc(SCc3c(F)cc(S(=O)(=O)N4CC[N+](C)(C)CC4)cc3Cl)n2-c2ccc(F)cc2)ccc1Cl [Compound 11k]

>  <assay.target>
h-TGR5 (Homo sapiens, UniProt Q8TDU6)

>  <pEC50>
> 7.00

$$$$
